# measured.on: AChE in neural stem cells (Homo sapiens)
# method.description: cell-based
pIC50: −log10 of the molar value.
Rule: pIC50 under 5 gives Not met, otherwise Met.

Task: Determine whether measured pIC50 meets or exceeds 5 for `CCOP(=S)(OCC)SCn1nnc2ccccc2c1=O`
Result: Met

Task: For O=c1[nH]c2ccc([S+]([O-])CCN3CCC(Cc4ccc(F)cc4)CC3)cc2o1 (stereo not shown) [Besonprodil, reference compound] then?
Result: Not met

Task: For CCOC(=O)c1ccc(NC(=O)CN2CCCCC2)cc1 [Sulcaine, reference compound] then?
Result: Not met

Task: For COP(N)(=S)Oc1ccccc1C(=O)OC(C)C (stereo not shown) then?
Result: Not met

Task: For CNC(=C[N+](=O)[O-])NCCSCc1csc(CN(C)C)n1 [Nizatidine, reference compound] then?
Result: Not met

Task: For `CCOP(=S)(OCC)SCSP(=S)(OCC)OCC` then?
Result: Met

Task: For `CCOC(=O)c1cn2nc(OP(=S)(OCC)OCC)cc2nc1C` then?
Result: Not met

Task: For `O=C(O)/C=C/C(=O)O.O=C1c2ccccc2C(=O)N1CCc1noc(-c2ccc(CN3CCCCCC3)s2)n1` then?
Result: Not met

Task: For `CC/N=c1\cc2oc3cc(NCC)c(C)cc3c(-c3ccccc3C(=O)OCC)c-2cc1C` then?
Result: Not met

###

Kindly state CC-v2 (curve classes) for each of the entries shown.
# measured.on: recombinant human AChE (Homo sapiens, UniProt P22303)
# method.description: biochemical
Structures can show the parent of a compound that is named as a salt.
Please state the value as a number alone, without comment.

Task: Which CC-v2 (curve classes) reading was recorded for the compound CCN(C(=O)c1cc(C)cc(OC[C@H](C)Nc2ccncc2)c1)C(C)C.Cc1ccc(S(=O)(=O)O)cc1 [GW473178E methyl benzene sulfonic acid] ?
Result: -2.1

Task: For [H]/N=C(\N/C(=N/[H])NCCCCCCNC(=N)NC(=N)Nc1ccc(Cl)cc1)Nc1ccc(Cl)cc1 [Chlorhexidine dihydrochloride] then?
Result: -1.1

Task: For COc1ccc2c(c1OC)CN1CCc3cc4c(cc3[C@@H]1C2)OCO4 [Canadine] then?
Result: -1.1

Task: For CCN(CC)CCOc1ccc2c(c1)C(=O)c1cc(OCCN(CC)CC)ccc1-2 [Tilorone, reference compound] then?
Result: -1.1

Task: For CC/N=c1\cc2oc3cc(NCC)c(C)cc3c(-c3ccccc3C(=O)OCC)c-2cc1C [Rhodamine 6G] then?
Result: -1.1

###

Kindly state IC50 for each of the entries shown.
# measured.on: AChE in SH-SY5Y spheroids (Homo sapiens, UniProt P22303)
# Sequence (P22303 32-614): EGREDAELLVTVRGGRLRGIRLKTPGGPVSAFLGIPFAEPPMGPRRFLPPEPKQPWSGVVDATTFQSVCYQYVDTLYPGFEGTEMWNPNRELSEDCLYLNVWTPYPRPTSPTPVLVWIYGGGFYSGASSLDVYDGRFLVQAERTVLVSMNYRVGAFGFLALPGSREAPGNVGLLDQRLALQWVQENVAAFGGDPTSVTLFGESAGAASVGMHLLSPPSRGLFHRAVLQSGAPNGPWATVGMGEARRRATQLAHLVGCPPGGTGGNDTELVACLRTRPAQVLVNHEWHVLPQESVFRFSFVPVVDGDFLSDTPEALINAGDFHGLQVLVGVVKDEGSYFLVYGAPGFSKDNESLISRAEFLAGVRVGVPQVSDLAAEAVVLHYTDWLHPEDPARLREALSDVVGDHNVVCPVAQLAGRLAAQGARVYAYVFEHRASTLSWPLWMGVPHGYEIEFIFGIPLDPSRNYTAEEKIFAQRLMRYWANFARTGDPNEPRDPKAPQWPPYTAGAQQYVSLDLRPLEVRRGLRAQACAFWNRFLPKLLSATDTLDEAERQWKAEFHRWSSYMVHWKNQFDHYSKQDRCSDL
# method.description: cell-based
# condition.details: potency (IC50), SH-SY5Y spheroids (24 h)
Give just the numeric value; µM need not be written.

Task: // map CNC(=O)ON=C(CSC)C(C)(C)C [Thiofanox] to recorded IC50 (system: AChE in SH-SY5Y spheroids (Homo sapiens, UniProt P22303))
Result: 6.89

Task: For CCOP(=S)(OCC)SCn1c(=O)oc2cc(Cl)ccc21 [Phosalone] then?
Result: 66.3

Task: For Cc1c(Cl)c(=O)oc2cc(OP(=O)(OCCCl)OCCCl)ccc12 [Haloxon] then?
Result: 0.88

Task: For CCCSP(=O)(OCC)Oc1ccc(Br)cc1Cl (centres unmarked) [Profenofos] then?
Result: 2.57

Task: For Cl.Clc1cc(Cl)c2c(c1)N=C1CCCCCN1C2 [PharmaGSID_47259] then?
Result: 2.24

Task: For CCOP(=S)(OCC)Oc1cc(-c2ccccc2)on1 [Isoxathion] then?
Result: 27

Task: For CC/N=c1\cc2oc3cc(NCC)c(C)cc3c(-c3ccccc3C(=O)OCC)c-2cc1C [Rhodamine 6G] then?
Result: 15.8

Task: For CCOP(=S)(OCC)Oc1nc(Cl)c(Cl)cc1Cl [Chlorpyrifos, reference compound] then?
Result: 41.7

###

# measured.on: recombinant human AChE (Homo sapiens)
# method.description: biochemical
Counter-ions that a name gives are not always drawn.
quantity.kind: Efficacy
Please state the value as a number alone, without comment.

Task: Which Efficacy reading was recorded for the compound `CCSCc1ccccc1OC(=O)NC` ?
Result: -87.381

Task: For [H]/N=C(\N/C(=N/[H])NCCCCCCNC(=N)NC(=N)Nc1ccc(Cl)cc1)Nc1ccc(Cl)cc1 [Chlorhexidine dihydrochloride] then?
Result: -89.988

Task: For `CCOP(=S)(OCC)Oc1cc(Cl)c(Br)cc1Cl` then?
Result: -50.884

Task: For CCN1CCC2(CC1)COc1cc3c(cc12)N(C(=O)c1ccc(-c2ccc(-c4nnc(C)o4)cc2C)cc1)CC3.Cl [SB236057A] then?
Result: -86.107

Task: For `CCCN(CCc1cccs1)[C@H]1CCc2c(O)cccc2C1` then?
Result: -40.728

Task: For `COc1cc2nc(N3CCN(C(=O)c4ccco4)CC3)nc(N)c2cc1OC` then?
Result: -14.406

Task: For `Cc1nc2ccccn2c(=O)c1CCN1CCC(C(=O)c2ccc(F)cc2)CC1` then?
Result: -31.06

Task: For CCN(CC)CCOc1ccc2c(c1)C(=O)c1cc(OCCN(CC)CC)ccc1-2 [Tilorone, reference compound] then?
Result: -92.014

Task: For CCCN[C@H]1CCc2nc(N)sc2C1 [Pramipexole dihydrochloride monohydrate] then?
Result: -20.242

Task: For CCN1CCCC1CNC(=O)c1cc(S(=O)(=O)CC)c(N)cc1OC (stereo not drawn) [Amisulpride, reference compound] then?
Result: -62.971

Task: For O=S1OC[C@@H]2[C@H](CO1)[C@]1(Cl)C(Cl)=C(Cl)[C@@]2(Cl)C1(Cl)Cl (stereo partly drawn) [Endosulfan I] then?
Result: -101.477

Task: For CCN(CC)C(=O)[C@@H]1C=C2c3cccc4[nH]cc(c34)C[C@H]2N(C)C1 [Lysergide] then?
Result: -56.682

Task: For CCOP(=S)(OCC)SCSCC [Phorate] then?
Result: -23.652

Task: For `Cl.Clc1cc(Cl)c2c(c1)N=C1CCCCCN1C2` then?
Result: -94.138

Task: For `COP(=O)(OC)O/C(=C\Cl)c1cc(Cl)c(Cl)cc1Cl` then?
Result: -30.752

Task: For `CCOP(=S)(OCC)Oc1cc(C)nc(N(CC)CC)n1` then?
Result: -15.947

Task: For CN(CCOc1ccc(NS(C)(=O)=O)cc1)CCc1ccc(NS(C)(=O)=O)cc1 [Dofetilide] then?
Result: -14.56

Task: For `CNC(=O)ON=C(CSC)C(C)(C)C` then?
Result: -92.082

Task: For `CCOP(=O)(Sc1ccccc1)Sc1ccccc1` then?
Result: -122.577

Task: For `COc1ccc2c(c1OC)CN1CCc3cc4c(cc3[C@@H]1C2)OCO4` then?
Result: -74.441

Task: For C[C@H]1[C@@H]2Cc3ccc(O)cc3[C@@]1(C)CCN2C.C[C@H]1[C@@H]2Cc3ccc(O)cc3[C@@]1(C)CCN2C.O=C(O)/C=C/C(=O)O [(+)-Metazocine fumarate (2:1)] then?
Result: -92.558

Task: For O=C(C[S+]([O-])Cc1ccco1)NC/C=C\COc1cc(CN2CCCCC2)ccn1 (stereo not drawn) then?
Result: -35.592

Task: For `CCOP(=S)(OCC)SCSC(C)(C)C` then?
Result: 0

Task: For CCN(C(=O)c1cc(C)cc(OC[C@H](C)Nc2ccncc2)c1)C(C)C.Cc1ccc(S(=O)(=O)O)cc1 [GW473178E methyl benzene sulfonic acid] then?
Result: -70.195

###

# measured.on: recombinant human AChE (Homo sapiens, UniProt P22303)
# method.description: biochemical
Structures can show the parent of a compound that is named as a salt.
quantity.kind: CC-v2 (curve classes)
Please state the value as a number alone, without comment.

Task: Which CC-v2 (curve classes) reading was recorded for the molecule CCN=C1C=CC(=C(c2ccc(N(CC)CC)cc2)c2ccc(N(CC)CC)cc2)c2ccccc21.Cl [Basic Blue 7] ?
Result: -1.1

Task: For CN1CCCC(n2nc(Cc3ccc(Cl)cc3)c3ccccc3c2=O)CC1 (stereo not drawn) [Azelastine hydrochloride] then?
Result: -2.2

Task: For CCOC(=O)c1cn2nc(OP(=S)(OCC)OCC)cc2nc1C [Pyrazophos] then?
Result: -3

Task: For O=S(=O)([O-])SSS(=O)(=O)[O-].[K+].[K+] [Potassium tetrathionate] then?
Result: -2.2

Task: For COc1cc(N)c(Cl)cc1C(=O)NC1CN2CCC1CC2.Cl (stereo not drawn) [Zacopride hydrochloride] then?
Result: 4

Task: For CCN1CCCC1CNC(=O)c1cc(S(=O)(=O)CC)c(N)cc1OC (stereo not drawn) [Amisulpride, reference compound] then?
Result: -2.2
